The reported measurements were obtained from paper PMC9646721.

Experiment: Ligand solubility threshold in ITC buffer
Format: physicochemical
Conditions: filtered dialysis buffer (CBS, 21 °C, aqueous buffer, thermodynamic from solid); pH 5.5, ITC buffer
Experimental: ITC experiments were conducted using a Microcal VP instrument (Malvern Pananalytical, Malvern, UK). Recombinant MLP/PR10 protein preparation involving production in Escherichia coli followed by cobalt-affinity chromatography was optimized to yield relatively high purity in a single step as determined by SDS-PAGE and colloidal Coomassie blue silver staining. The less than 48 h decrease in atmospheric oxygen exposure generated high-quality proteins with reduced precipitate. […]
experimental readout: solubility

substance_smiles=COc1ccc(Cc2nccc3cc(OC)c(OC)cc23)cc1OC experimental_readout=solubility obs_value="1200 µM"
substance_smiles=COc1ccc2c(c1OC)C(=O)O[C@@H]2[C@H]1c2c(cc3c(c2OC)OCO3)CCN1C experimental_readout=solubility obs_value="1100 µM"

###

target: MLP2; test: ANS displacement assay; conditions: 10 µM protein and 10 µM ANS, CBS pH 5.5
pIC50: −log10 of the molar value.
Attribute: pIC50
experimental readout: pIC50

substance_smiles=COc1ccc2c3c1O[C@H]1[C@@H](O)C=C[C@H]4[C@@H](C2)N(C)CC[C@@]341 obs_value=3.69
substance_smiles=COC1=CC=C2[C@H]3Cc4ccc(OC)c5c4[C@@]2(CCN3C)[C@H]1O5 obs_value=3.40
substance_smiles=COc1ccc(Cc2nccc3cc(OC)c(OC)cc23)cc1OC obs_value=4.21

###

Attribute: pKd
Target: PR10-4
Test: ANS displacement assay
Assay type: binding, Papaver somniferum
Conditions: from average IC50 and PR10-ANS Kd, competitive inhibition assumed, read-out: Estimated Kd
Text: Eluates were store separately on ice. Displacement of ANS is associated with reduced fluorescence.
pKd: −log10 of the molar value.
experimental readout: pKd

substance_smiles=COC1=CC=C2[C@H]3Cc4ccc(OC)c5c4[C@@]2(CCN3C)[C@H]1O5 experimental_readout=pKd obs_value=2.63
substance_smiles=COc1ccc(Cc2nccc3cc(OC)c(OC)cc23)cc1OC experimental_readout=pKd obs_value=4.42

###

Attribute: Kd
biological target: PR10-12; test: Isothermal titration calorimetry; type: binding, Papaver somniferum; conditions: ITC, PBS pH 7.4, 25 °C, single-site model
experimental readout: Kd

substance_smiles=COC1=CC=C2[C@H]3Cc4ccc(OC)c5c4[C@@]2(CCN3C)[C@H]1O5 experimental_readout=Kd obs_value="21.6 µM"
substance_smiles=COc1ccc2c3c1O[C@H]1[C@@H](O)C=C[C@H]4[C@@H](C2)N(C)CC[C@@]341 experimental_readout=Kd obs_value="140 µM"

###

biological target: THS2 (Papaver somniferum); assay: ANS displacement assay
Sequence (A0A2U9GGW3 whole entry): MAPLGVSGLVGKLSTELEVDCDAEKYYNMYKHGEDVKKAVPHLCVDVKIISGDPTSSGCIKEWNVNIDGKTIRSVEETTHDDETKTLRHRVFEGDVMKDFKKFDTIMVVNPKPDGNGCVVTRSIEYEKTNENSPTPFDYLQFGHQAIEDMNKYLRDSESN
experimental readout: Kd (µM)

compound="COc1ccc(Cc2nccc3cc(OC)c(OC)cc23)cc1OC [Papaverine, papaverine]" obs_value=333

###

biological target: PR10-4; details: read-out: Kd (ANS-protein, apparent); ANS 10 µM fixed, protein 0 to 100 µM; CBS pH 5.5; one-site hyperbolic model
experimental readout: Kd

substance_smiles=O=S(=O)(O)c1cccc2cccc(Nc3ccccc3)c12 experimental_readout=Kd obs_value="107 µM"

###

Biological target: MLP15 (Papaver somniferum)
Sequence (P19825 1-159): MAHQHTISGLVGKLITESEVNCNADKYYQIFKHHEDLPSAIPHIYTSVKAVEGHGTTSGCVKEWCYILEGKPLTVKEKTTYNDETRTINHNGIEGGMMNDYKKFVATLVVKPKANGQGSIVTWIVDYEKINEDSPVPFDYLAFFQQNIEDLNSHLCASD
Test: ANS displacement assay
Settings: MLP15; ANS displacement dose-response fit
Attribute: Hill Slope
experimental readout: Hill Slope

substance_smiles=COc1ccc2c3c1O[C@H]1[C@@H](O)C=C[C@H]4[C@@H](C2)N(C)CC[C@@]341 obs_value=-0.97
substance_smiles=COc1ccc2c(c1OC)C(=O)O[C@@H]2[C@H]1c2c(cc3c(c2OC)OCO3)CCN1C obs_value=-1.18
substance_smiles=COc1ccc(Cc2nccc3cc(OC)c(OC)cc23)cc1OC obs_value=-1.21
substance_smiles=COC1=CC=C2[C@H]3Cc4ccc(OC)c5c4[C@@]2(CCN3C)[C@H]1O5 obs_value=-1.05
